src = paper PMC5540273

Test system: PIM2;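 note: KINOMEscan kinase panel screen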
test.parameters: concentration: 1 μM, replicates: in singlicate; n = 1
quantity: %Inh (%)
All answers are understood in %, so give the number only.

Would you please look over these solved cases?
| molecule | unit.name | %Inh |
| --- | --- | --- |
| Cc1nn2c(=O)cc(N3CCO[C@H](C)C3)nc2n1Cc1cccc(Cl)c1Cl | % | 0 |
| COc1cccc(CC(=O)N2CCc3cc(-c4cn(C)c5ncnc(N)c45)ccc32)c1 | % | 0 |
| COc1cccc(NC(=O)NCCNc2ccnc(Nc3ccc(F)cc3)n2)c1 | % | 0 |

Now let's try a different one.
**Query** Retrieve %Inh measured for NCCC(NC(=O)c1cc(Br)c(-c2ccnc3[nH]ccc23)s1)c1ccccc1.O=C(O)C(F)(F)F.O=C(O)C(F)(F)F (stereo not shown) and print it.
**Result** 95.5
